target: Mitogen-activated protein kinase kinase kinase 2 (Homo sapiens) (UniProt Q9Y2U5); assay: modulators of MEK5 binding to wildtype MEKK2, primary screen, biochemical, multiplex bead flow cytometry, Alexa488-MEK5 (AID 1531); details: Alexa488-MEK5 binding to MEKK2 WT, at 10 µM, actives lie on both sides
Hit rate of the full screen: of about 290,000 compounds, about 3,300 (1.1%) were called active. For the sample, actives were picked, then their nearest neighbours and some compounds at random.
Recorded binding response (% of control) by entry

# compound, binding response (% of control)
rows = [
    ("O=c1[nH]cccc1-c1nc2ccccc2n1Cc1ccc(Cl)cc1", "105% (inactive)"),
    ("CC(=O)N1c2ccc(S(=O)(=O)N3CCCC(C(=O)Nc4cccc(F)c4)C3)cc2CC1C (stereo not given)", "106% (inactive)"),
    ("COC(=O)c1c(-c2ccsc2)oc2ccc(-c3cc(OC)c(OC)c(OC)c3)cc12", "96% (inactive)"),
    ("COCCNc1cc(-c2ccccc2)nc2cc(-c3cccc(F)c3)nn12", "118% (inactive)"),
    ("CCOC(=O)C(Cc1ccc(N)cc1)N1C(=O)c2ccccc2C1=O (stereo not given)", "106% (inactive)"),
]
